For each entry below, report its inhibition value.
# RUN_DESCRIPTION: anti-Giardia activity of synthetic compounds – Compounds Australia Scaffold Library subset, 24/48 h, primary screen (AID 1794835);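 note: 0% = parasite counts in DMSO vehicle wells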
# ASSAY_CONTEXT: Giardia lamblia BRIS/91/HEPU/1279 trophozoite counts, imaging, at 10 µM, stronger effect = higher value
About 45 (2%) of roughly 2,500 compounds were called active. The list comes from a sample in which actives are over-represented; it also holds close analogues and randomly drawn compounds.

Solved cases below.
>  <STRUCTURE>
Cc1nn(-c2ccccc2)c2sc(C(=O)N3CCCCC3)cc12

>  <RESULT_VALUE>
39.6% (active)

$$$$
>  <STRUCTURE>
Cc1nn(Cc2ccccc2)c2sc(C(=O)N3CCN(C(=O)N4CCCCC4)CC3)cc12

>  <RESULT_VALUE>
14% (inactive)

$$$$
>  <STRUCTURE>
COc1cc(OC)c(C2=CCN(C(=O)c3ccc(C)s3)CC2)c(OC)c1

>  <RESULT_VALUE>
59.3% (active)

$$$$
>  <STRUCTURE>
COc1c(C)cnc(Cn2cnc([N+](=O)[O-])c2)c1C

>  <RESULT_VALUE>
83% (active)

$$$$
>  <STRUCTURE>
COc1ccc(C2=Nc3ccccc3N(Cc3cccc(F)c3)C(=O)C2)cc1

>  <RESULT_VALUE>
30.2% (inactive)

$$$$

Batch lookup, inhibition per entry.
1. COc1ccccc1N1CCN(C(=O)c2cc3c(C)nn(-c4ccc(C)cc4)c3s2)CC1
2. COc1ccccc1N1CCN(C(=O)c2ccc3[nH]c(C)c(C)c3c2)CC1
3. Cc1ccc(C(=O)Nc2ccc3c(c2)Oc2ccccc2C(=O)N3C)cc1
4. CN1C(=O)c2cc(NC(=O)c3ccc4c(c3)OCO4)ccc2N2CCN=C12

1. 65.7% (active)
2. 36.6% (inactive)
3. 96.8% (active)
4. 31.6% (inactive)

---

# RUN_DESCRIPTION: anti-Giardia activity of synthetic compounds – Compounds Australia Scaffold Library subset, 24/48 h, primary screen (AID 1794835);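 note: 0% = parasite counts in DMSO vehicle wells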
# ASSAY_CONTEXT: Giardia lamblia BRIS/91/HEPU/1279 trophozoite counts, imaging, measured here: growth inhibition at 24 h, at 10 µM, stronger effect = higher value
Hit rate of the full screen: of about 2,500 compounds, about 45 (2%) were called active. For the sample, actives were picked, then their nearest neighbours and some compounds at random.
So I've got a bunch of compounds here, and I need their inhibition values.
Give bare numbers, in %.

Below, each entry is followed by its recorded inhibition result.
>  <STRUCTURE>
Cc1ccccc1C(=O)Nc1cnc(N2CCNCC2)c(C(=O)N(C)Cc2ccccc2)c1

>  <UNIT>
%

>  <inhibition>
10.2

$$$$
>  <STRUCTURE>
O=C(c1ccc(F)cc1)N1CCc2[nH]nc(C(=O)N3CCN(c4ccc(F)cc4)CC3)c2C1

>  <UNIT>
%

>  <inhibition>
2.4

$$$$
>  <STRUCTURE>
Cc1ccc(S(=O)(=O)NC2CCN(C(=O)Cc3ccc(Br)cc3)CC2)cc1

>  <UNIT>
%

>  <inhibition>
2

$$$$
>  <STRUCTURE>
Fc1cccc(Nc2c3c(nc4ccccc24)CCC3)c1

>  <UNIT>
%

>  <inhibition>
2.3

$$$$
>  <STRUCTURE>
Cc1ccc(C)c(-c2cc3c4nn(CC(=O)N(C)c5ccc(F)cc5)c(=O)n4ccn3n2)c1

>  <UNIT>
%

>  <inhibition>
79.6

$$$$

Hey, can you go through the list below and give me inhibition for every item?
1. Cc1ccc(NC(=O)c2ccc(=O)n(CCN3CCOCC3)n2)cc1
2. CCn1cc(C(=O)NCc2ccccc2)c(=O)c2ccc(C)nc21
3. COc1ccc(NC(=O)N2CCN(c3cc(C)nc(N4CCOCC4)n3)CC2)cc1
4. Cc1cc(C)c2c(=O)n(CC(=O)Nc3ccc(Br)cc3)c(=O)n(C)c2n1
5. CC1CCN(C(=O)c2oc3ccccc3c2NC(=O)c2ccc([N+](=O)[O-])o2)CC1
6. COc1c(C)cnc(Cn2cnc([N+](=O)[O-])c2)c1C

1. 1.4
2. 8.9
3. 12.7
4. 4.9
5. 87.8
6. 25.8

Provide reported inhibition for each item, in the same order as listed.
1. CC(C)c1ccc(Nc2ncccc2S(=O)(=O)N2CCCC2)cc1
2. COc1ccc(CNC(=O)c2[nH]c3cc(C)sc3c2CN2CCCC2)cc1
3. COc1cccc(Nc2nc(N3CCN(c4ccccc4)CC3)nc3c2cnn3C)c1
4. CCN1CCN(c2ccc(-c3nc(-c4cccc(F)c4)no3)cn2)CC1
5. COc1ccc(Nc2cc(C)nc(N3CCN(C(=O)Nc4cccc(OC)c4)CC3)n2)cc1
6. Cc1ccc2nc(-c3ccc(C)c(NC(=O)c4cccnc4)c3)[nH]c2c1

1. 27
2. 10.1
3. 6.1
4. 31.4
5. 49.4
6. 2.9

List the reported inhibition of each compound below.
1. COc1cccc(Nc2c3c(nc4ccccc24)CCC3)c1
2. Cc1cc2[nH]c(C(=O)Nc3ccccc3C)c(CN3CCOCC3)c2s1
3. Cc1sc2cc(C(=O)NC(C)(C)C)[nH]c2c1CN1CCOCC1
4. O=C(Cc1csc2nc(-c3ccccc3)cn12)NCCc1cccs1
5. Fc1ccc(C2=Nc3ccc(Cl)cc3NC(c3cccs3)=N2)cc1

22
94.7
3
0.1
23

---

# RUN_DESCRIPTION: anti-Giardia activity of synthetic compounds – Compounds Australia Scaffold Library subset, 24/48 h, primary screen (AID 1794835);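 note: 0% = parasite counts in DMSO vehicle wells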
# ASSAY_CONTEXT: Giardia lamblia BRIS/91/HEPU/1279 trophozoite counts, imaging, measured here: growth inhibition at 24 h, at 10 µM, stronger effect = higher value
The campaign covered roughly 2,500 compounds. About 45 (2%) were called active. What follows is part of a selection rich in actives, with near analogues and random picks from the rest.
Assign inhibition to each entry below.
Answers are plain numbers, in %.

>  <COMPOUND>
CCc1nnc2c3ccccc3nc(N3CCN(c4cccc(Cl)c4)CC3)n12

>  <inhibition (%)>
33.5

$$$$
>  <COMPOUND>
CCN(Cc1ccccc1)C(=O)c1cc(-c2ccccc2)n[nH]1

>  <inhibition (%)>
19.1

$$$$
>  <COMPOUND>
N=C1C(=C2Nc3ccccc3S2)CC(=O)N1C1CC1

>  <inhibition (%)>
2.5

$$$$
>  <COMPOUND>
CNC(=O)N1C[C@@H](CN(C)C)[C@@H](C2CCN(CCC(C)C)CC2)C1

>  <inhibition (%)>
13.1

$$$$
>  <COMPOUND>
Cc1ccc(CNC(=O)N2CCN(C3=CC4=NCC(C)N4C=N3)CC2)cc1 (centres undefined)

>  <inhibition (%)>
18.7

$$$$

Hi! Can you tell me inhibition for each of these compounds?
1. COc1ccc(C2=Nc3ccccc3N(CC(=O)Nc3cccc(F)c3)C(=O)C2)cc1
2. COc1ccc(C(=O)N2c3ccccc3NC(=O)CC2C)cc1OC (centres undefined)
3. Cc1ccc(-c2nc3ccccc3n2Cc2cccc(F)c2)o1
4. COc1ccc(C2=Nc3ccccc3N(Cc3cccc(F)c3)C(=O)C2)cc1

1: 12.6; 2: 2.2; 3: 22.1; 4: 8.7

---

# RUN_DESCRIPTION: anti-Giardia activity of synthetic compounds – Compounds Australia Scaffold Library subset, 24/48 h, primary screen (AID 1794835);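 note: 0% = parasite counts in DMSO vehicle wells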
# ASSAY_CONTEXT: Giardia lamblia BRIS/91/HEPU/1279 trophozoite counts, imaging, measured here: growth inhibition at 24 h, at 10 µM, stronger effect = higher value
Out of some 2,500 compounds screened, about 45 (2%) were called active. Only a selection was taken, and actives are over-represented in it overall.
Field: class. Source value: inhibition. Ranges: bucket 1: < 2%; bucket 2: ≥ 2% and < 10%; bucket 3: ≥ 10%

Recorded results for 3 compounds are shown here.
>  <COMPOUND>
O=C(c1ccco1)N1CCC(NS(=O)(=O)c2ccc(Cl)cc2)CC1

>  <CLASSIFICATION>
bucket 1

$$$$
>  <COMPOUND>
Cc1ccc(COCc2nn(C)c3c2CN(C(=O)Nc2ccccc2)CC3)cc1

>  <CLASSIFICATION>
bucket 2

$$$$
>  <COMPOUND>
O=C(NC1CCCCC1)c1nc(Nc2ccccc2)c2ccccc2n1

>  <CLASSIFICATION>
bucket 3

$$$$

Hey, which category is O=C(NCc1cccc(F)c1)C1CCCN(c2nc3ccccc3n3cccc23)C1 (stereo unspecified) in, do you know?
bucket 2

The entry to classify is COc1ccc(CN2CCN(C(=O)c3c(C)oc4c3C3=NCCN3C=N4)CC2)c(OC)c1OC ; which class holds it?
bucket 2

Class (by measured inhibition) for COc1cc(OC)c(C2=CCN(C(=O)c3ccc(C)s3)CC2)c(OC)c1
bucket 3

Place this compound in its band: O=S(=O)(Cc1ccc(C(F)(F)F)cc1)Cc1noc(C2CC2)n1
bucket 3
